Tested on: 439559-082-T-J2-PDC complex spheroid growth;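 note: spheroids exposed to agents for 7 days starting day 3 after seeding; percent of DMSO vehicle control viability with 100% = vehicle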
EXPERIMENT: Anticancer human tumor 439559-082-T-J2-PDC patient-derived colon adenocarcinoma cell line growth inhibition [Asc]
ASSAY_CONDITIONS: second compound 0.1 µM; first compound 0.3 µM; stronger effect = lower value
Some compounds, each annotated with its measured viability, T/C.

[
  {
    "COMPOUND": "CCN1C(C(=O)NC23CCC(C(=O)O)(CC2)CC3)C(c2cccc(Cl)c2F)C2(C(=O)Nc3cc(Cl)ccc32)C12CCCCC2 (stereo unspecified) + Cc1c(S(C)(=O)=O)c(-c2cc(F)cc(N3CCN(c4ccc(NS(=O)(=O)c5ccc(NC(CCN6CCC(C(=O)OCCCP(=O)(O)O)CC6)CSc6ccccc6)c(S(=O)(=O)C(F)(F)F)c5)cc4)CC3)c2)c(-c2ccc(Cl)cc2)n1C(C)C",
    "VALUE_UNIT": "%",
    "viability, T/C": 98.6
  },
  {
    "COMPOUND": "Cc1nc(N2CCC3(CC2)COC(C)C3N)c(CO)nc1Sc1ccnc(N)c1Cl (stereo unspecified) + Cc1c(S(C)(=O)=O)c(-c2cc(F)cc(N3CCN(c4ccc(NS(=O)(=O)c5ccc(NC(CCN6CCC(C(=O)OCCCP(=O)(O)O)CC6)CSc6ccccc6)c(S(=O)(=O)C(F)(F)F)c5)cc4)CC3)c2)c(-c2ccc(Cl)cc2)n1C(C)C",
    "VALUE_UNIT": "%",
    "viability, T/C": 82.6
  },
  {
    "COMPOUND": "NC(=O)C(=Cn1cnc(-c2cc(C(F)(F)F)cc(C(F)(F)F)c2)n1)c1cncnc1 + Cc1c(S(C)(=O)=O)c(-c2cc(F)cc(N3CCN(c4ccc(NS(=O)(=O)c5ccc(NC(CCN6CCC(C(=O)OCCCP(=O)(O)O)CC6)CSc6ccccc6)c(S(=O)(=O)C(F)(F)F)c5)cc4)CC3)c2)c(-c2ccc(Cl)cc2)n1C(C)C",
    "VALUE_UNIT": "%",
    "viability, T/C": 82.5
  },
  {
    "COMPOUND": "NC(=O)C(=Cn1cnc(-c2cc(C(F)(F)F)cc(C(F)(F)F)c2)n1)c1cncnc1 + CNC(C)C(=O)NC1CN(S(=O)(=O)c2cccc(S(=O)(=O)N3CCC4CCC(C(=O)NC(c5ccccc5)c5ccccc5)N4C(=O)C(NC(=O)C(C)NC)C3)c2)CCC2CCC(C(=O)NC(c3ccccc3)c3ccccc3)N2C1=O",
    "VALUE_UNIT": "%",
    "viability, T/C": 87.2
  },
  {
    "COMPOUND": "Cc1nc(N2CCC3(CC2)COC(C)C3N)c(CO)nc1Sc1ccnc(N)c1Cl (stereo unspecified) + CNC(C)C(=O)NC1CN(S(=O)(=O)c2cccc(S(=O)(=O)N3CCC4CCC(C(=O)NC(c5ccccc5)c5ccccc5)N4C(=O)C(NC(=O)C(C)NC)C3)c2)CCC2CCC(C(=O)NC(c3ccccc3)c3ccccc3)N2C1=O",
    "VALUE_UNIT": "%",
    "viability, T/C": 84.2
  },
  {
    "COMPOUND": "CCN1C(C(=O)NC23CCC(C(=O)O)(CC2)CC3)C(c2cccc(Cl)c2F)C2(C(=O)Nc3cc(Cl)ccc32)C12CCCCC2 (stereo unspecified) + CNC(C)C(=O)NC1CN(S(=O)(=O)c2cccc(S(=O)(=O)N3CCC4CCC(C(=O)NC(c5ccccc5)c5ccccc5)N4C(=O)C(NC(=O)C(C)NC)C3)c2)CCC2CCC(C(=O)NC(c3ccccc3)c3ccccc3)N2C1=O",
    "VALUE_UNIT": "%",
    "viability, T/C": 99.1
  }
]
